Listed here: items and their measured concentration at 2 h.
test: Plasma pharmacokinetics after single oral dose of Δ8-THCV in MCT oil (LC-MS/MS, non-compartmental analysis); type: in vivo, human; conditions: human, plasma, oral, 200 mg, 2 h; 200 mg Δ8-THCV dose; Median (IQ Range)
A number alone suffices; assume ng/mL.

The following molecules have reported results that may help.
CCCCCc1cc(O)c2c(c1)OC(C)(C)[C@@H]1CC=C(C(=O)O)CC21 (single isomer, unassigned; (+)) [Δ8-THC-COOH, (+)-11-nor-Δ8-THC-9-carboxylic acid] ... 0
CCCc1cc(O)c2c(c1)OC(C)(C)[C@@H]1CCC(C)=C[C@@H]21 [Δ9-THCV, Δ9-tetrahydrocannabivarin] ... 0
CCCc1cc(O)c2c(c1)OC(C)(C)[C@@H]1CC=C(CO)C[C@@H]21 (racemic) [11-OH-Δ8-THCV, (±)-11-hydroxy-Δ8-THCV] ... 1.8
CCCc1cc(O)c2c(c1)OC(C)(C)[C@@H]1CC=C(C)C[C@@H]21 [Δ8-THCV, Δ8-tetrahydrocannabivarin] ... 14.3
CCCc1cc(O)c2c(c1)OC(C)(C)[C@@H]1CCC(C(=O)O)=C[C@@H]21 ... 9.4

Attention now turns to another entry.
// returns reported concentration at 2 h for input CCCc1cc(O)c2c(c1)OC(C)(C)[C@@H]1CC=C(C(=O)O)C[C@@H]21 319

* * *

assay: Plasma pharmacokinetics after single oral dose of Δ8-THCV in MCT oil (LC-MS/MS, non-compartmental analysis); assay type: in vivo, human; conditions: human, plasma, oral, 25 mg, 8 h; 25 mg Δ8-THCV dose; Mean (SD, %CV)
value_type: concentration at 8 h (ng/mL)
A number alone suffices; assume ng/mL.

The following compounds have reported results that may help.
CCCc1cc(O)c2c(c1)OC(C)(C)[C@@H]1CC=C(CO)C[C@@H]21 (racemic) [11-OH-Δ8-THCV, (±)-11-hydroxy-Δ8-THCV] ... 0
CCCCCc1cc(O)c2c(c1)OC(C)(C)[C@@H]1CC=C(C(=O)O)CC21 (single isomer, unassigned; (+)) [Δ8-THC-COOH, (+)-11-nor-Δ8-THC-9-carboxylic acid] ... 0
CCCc1cc(O)c2c(c1)OC(C)(C)[C@@H]1CC=C(C)C[C@@H]21 [Δ8-THCV, Δ8-tetrahydrocannabivarin] ... 0.4
CCCc1cc(O)c2c(c1)OC(C)(C)[C@@H]1CCC(C(=O)O)=C[C@@H]21 ... 2.3
CCCc1cc(O)c2c(c1)OC(C)(C)[C@@H]1CC=C(C(=O)O)C[C@@H]21 ... 71.6

Attention now turns to another entry.
// returns reported concentration at 8 h for input CCCc1cc(O)c2c(c1)OC(C)(C)[C@@H]1CCC(C)=C[C@@H]21 [Δ9-THCV, Δ9-tetrahydrocannabivarin] 0

* * *

Listed here: items and their measured Tmax.
assay: Plasma pharmacokinetics after single oral dose of Δ8-THCV in MCT oil (LC-MS/MS, non-compartmental analysis); assay type: in vivo, human; settings: human, plasma, po, across oral Δ8-THCV doses 12.5-200 mg; plasma; read-out: median time-to-maximum concentration (tmax), range across doses

CCCc1cc(O)c2c(c1)OC(C)(C)[C@@H]1CC=C(C(=O)O)C[C@@H]21 [Δ8-THCV-COOH, 11-nor-9-carboxy-Δ8-THCV] ... 4.6 to 5.3 h

Attention now turns to another entry.
// returns reported Tmax for input CCCc1cc(O)c2c(c1)OC(C)(C)[C@@H]1CC=C(C)C[C@@H]21 [Δ8-THCV, Δ8-tetrahydrocannabivarin] 3.8 to 5 h

This collection of values is drawn from paper PMC11676667.
